# kon values compiled below
- system: human CXCR4 receptor with a C-terminal linear C9 peptide tag (human)
- protocolDescription: SPR (Biacore 2000), C9-tagged CXCR4 captured by 1D4 antibody, antibody injected, 4 °C
Kindly answer with a numeric value in M⁻¹ s⁻¹, unit omitted.

Recorded results for 4 binders are shown here.
>  <binder>
Antibody IV (antibody, human IgG4 S228P, kappa, F234A L235A, V domains shown) VH: EVQLVESGGGLVQPGGSLRLSCAASGFTSTDYYFSWVRQAPGKGLEWVGFIRNKRKGYTTEYSGSVKGRFTISRDDSKNSLYLQMNSLKTEDTAVYYCAREPITTDPRDYWGQGTLVTVSS VL: DIVMTQSPDSLAVSLGERATINCKSSQSLFNSRTRKKYLAWYQQKPGQPPKLLIYWASKRKSGVPDRFSGSGSGTDFTLTISSLQAEDVAVYYCKQSRFLRAFGQGTKLEIKR

>  <measurementType>
kon

>  <unitSymbol>
M⁻¹ s⁻¹

>  <reportedResult>
774000

$$$$
>  <binder>
Antibody II (antibody, human IgG4 S228P, kappa, F234A L235A, V domains shown) VH: EVQLVESGGGLVQPGGSLRLSCAASGFTSTDYYFSWVRQAPGKGLEWVGFIRSKSKGYTTEYSGSVKGRFTISRDDSKNSLYLQMNSLKTEDTAVYYCAREPITTDPRDYWGQGTLVTVSS VL: DIVMTQSPDSLAVSLGERATINCKSSQSLFNSRTRKKYLAWYQQKPGQPPKLLIYWASKRKSGVPDRFSGSGSGTDFTLTISSLQAEDVAVYYCKQSRFLRAFGQGTKLEIKR

>  <measurementType>
kon

>  <unitSymbol>
M⁻¹ s⁻¹

>  <reportedResult>
2.5e+06

$$$$
>  <binder>
Antibody I (antibody, human IgG4 S228P, kappa, F234A L235A, V domains shown) VH: EVQLVESGGGLVQPGGSLRLSCAASGFTSTDYYFSWVRQAPGKGLEWVGFIRTKSKGYTTEYSGSVKGRFTISRDDSKNSLYLQMNSLKTEDTAVYYCAREPITTDPRDYWGQGTLVTVSS VL: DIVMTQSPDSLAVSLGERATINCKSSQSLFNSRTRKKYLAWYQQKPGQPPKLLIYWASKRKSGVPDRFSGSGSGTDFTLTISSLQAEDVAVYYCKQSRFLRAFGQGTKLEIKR

>  <measurementType>
kon

>  <unitSymbol>
M⁻¹ s⁻¹

>  <reportedResult>
2.36e+06

$$$$
>  <binder>
Antibody V (antibody, human IgG4 S228P, kappa, F234A L235A, V domains shown) VH: EVQLVESGGGLVQPGGSLRLSCAASGFTSTDYYFSWVRQAPGKGLEWVGFIRHKSKGYTTEYSGSVKGRFTISRDDSKNSLYLQMNSLKTEDTAVYYCAREPITTDPRDYWGQGTLVTVSS VL: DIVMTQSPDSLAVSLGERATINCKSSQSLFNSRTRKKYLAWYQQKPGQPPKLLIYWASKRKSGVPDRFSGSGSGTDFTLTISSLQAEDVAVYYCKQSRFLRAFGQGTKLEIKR

>  <measurementType>
kon

>  <unitSymbol>
M⁻¹ s⁻¹

>  <reportedResult>
1.91e+06

$$$$

Continue with the binder presented below.
Sample Antibody III (antibody, human IgG4 S228P, kappa, F234A L235A, V domains shown, Human engineered anti-CXCR4 antibody; also called the antibody III) VH: EVQLVESGGGLVQPGGSLRLSCAASGFTSTDYYFSWVRQAPGKGLEWVGFIRYKSKGYTTEYSGSVKGRFTISRDDSKNSLYLQMNSLKTEDTAVYYCAREPITTDPRDYWGQGTLVTVSS VL: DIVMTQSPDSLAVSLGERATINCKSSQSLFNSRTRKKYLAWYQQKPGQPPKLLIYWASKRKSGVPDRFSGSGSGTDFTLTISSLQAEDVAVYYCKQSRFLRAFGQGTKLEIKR — what was its kon? 1.12e+06
